Please respond with reported Percent Effect for every item in the list.
System: Wolbachia pipientis
Assay: Anti-Wolbachia Cell-Based Screen
Assay type: functional
Design: scale not given: in the data most compounds retested in dose-response had high values
Conditions: 5 µM
The campaign covered roughly 48,000 compounds. About 13,000 (27%) showed an effect of 50% or more. Some of the results follow.
Give bare numbers, in %.

Completed entries (count: 2):
Smiles Representation	Target	Percent Effect / %
CCc1ccc(C(=O)N2CC[C@](C)(O)[C@H](C)C2)[nH]1	Wolbachia pipientis	-16.61
CC(C)c1ncncc1C(=O)N1CCN(Cc2ccsc2)CC1	Wolbachia pipientis	100.4

Let us move to another entry and its Percent Effect.
Query: Jot down Percent Effect (Wolbachia pipientis) of COc1ccc2c(ccn2CC(=O)Nc2n[nH]c(C(C)C)n2)c1 .
Response: 99.9

---

Assign Percent Effect to each entry below.
System: Wolbachia pipientis
Experiment: Anti-Wolbachia Cell-Based Screen
Type: functional
Design: scale not given: in the data most compounds retested in dose-response had high values
Conditions: 5 µM
In all, about 48,000 compounds went through this assay and about 13,000 (27%) showed an effect of 50% or more. The list shows a part of the results.
Numbers only, in %.

Compound	Percent Effect [%]
CNC(=O)c1cnn2c(C3CCCN3)ccnc12 (stereo not given)	113.8
Cc1nnc([C@@]23CCO[C@@H]2CCN(Cc2cccc4ccccc24)C3)o1	98.73
CN1CCOC(CNC(=O)Cc2coc(-c3ccccc3)n2)C1 (stereo not given)	107.6
COc1ccc(CCC2CCCCN2)cc1.Cl (stereo not given)	100.4
Cc1cc(CN(CC(N)=O)CC(C)C)on1	-7.292
CCOCCC(=O)NCC(C)c1ccsc1 (stereo not given)	1.929
NC(=O)CCS(=O)(=O)Cc1ccc(OCC(F)(F)F)cc1	-2.639
CCN(CC)C(=O)c1cc(C2CCCN2C)ccn1.O=CO (stereo not given)	-4.853
COC(=O)c1ccc(NC(=O)CN2CCCCC2C2OCCO2)cc1 (stereo not given)	-2.306

Shifting focus to the compound that follows.
Query: Supply Percent Effect value. Item: O=C(COc1ccccc1Cl)N1CCCC(n2ccnc2)C1 (stereo not given)
Response: 92.71

---

So I've got a bunch of compounds here, and I need their Percent Effect values.
System: Wolbachia pipientis
Experiment: Anti-Wolbachia Cell-Based Screen
Assay type: functional
Set-up: scale not given: in the data most compounds retested in dose-response had high values
Conditions: 5 µM
Among all 48,000 compounds or so, about 13,000 (27%) showed an effect of 50% or more. The list shows a part of the results.
Answers are plain numbers, in %.

Compound	Percent Effect / %
COc1ccc(N2CCCN(C(=O)Cc3csc(C)n3)CC2)cc1	-1.36

Need Percent Effect for each of these compounds.
1. COc1ccnc(N2CCN(C(=O)Cc3csc(C)n3)CC2)n1
2. Cn1cc(N2CC3(CCN(Cc4cccs4)CC3)OCC2=O)cn1.O=C(O)C(F)(F)F
3. Cc1cc(C(=O)N2CCCC(c3cc(=O)nc4n3CCC4)C2)on1 (centres undefined)
4. CCN(C)C[C@H]1CC[C@@H](Cc2ccc3c(cnn3C)c2)O1
5. Cc1cccc(N2CC[C@H]3[C@H]2CCN3C(=O)c2cnn(C)c2)n1
6. Cc1nc(NC2CCCC2)cc(C2CCN2C(=O)c2ccccc2)n1 (centres undefined)
7. CC(O)CN1CCN(Cc2cccc(C(=O)N(C)C)c2)CC1 (centres undefined)

Response:
1: 124.6; 2: 13.04; 3: 100.5; 4: -8.878; 5: 8.202; 6: 4.339; 7: -11.87

Query: Using the record for Cc1nnc(CN(C)C(=O)C(CC(C)C)N2CCCCC2=O)n1C (centres undefined) , state its measured Percent Effect.
Response: -1.247
